Source of measurements: patent US10463644B2

tested on: cancer stem cells; assay: Survival rate of cancer stem cells after test compound is added (flow cytometry, Annexin V-FITC/PI, clinical specimen); format: cell-based, patient; conditions: Homo sapiens, 18 h, Gastrointestinal tumor; 10.0 μM
readout_type: viability at 10 µM (%)
Field: numeric (%). Do not append units.

Below, each entry is followed by its recorded viability at 10 µM result.
compound	units_of_measure	experimental_result
CCOC(=O)[C@@H]1CCCN1C[C@@H]1C(=O)O[C@H]2[C@H]1CCC1(CC1)[C@@H]1CCC3(CC3)[C@H]21	%	81
C=C1C(=O)O[C@@H]2[C@@H]3[C@@H](CC[C@@]3(C)O)C(=C)CC[C@@H]12	%	57
C=C1C(=O)O[C@@H]2[C@@H]3[C@@H](CCC34CC4)C3(CC[C@@H]12)CC3	%	87

Enter reported viability at 10 µM observed with cancer stem cells for `C=C1C(=O)O[C@H]2[C@H]1CC[C@]1(C)O[C@@]13CC[C@@](C)(O)[C@H]23`
56

And for `C=C1C(=O)O[C@@H]2[C@H]3C(C)=CC[C@@]34O[C@@]4(C)CC[C@@H]12` ?
55

Another: `[2H][C@@]1(CN(C)C)C(=O)O[C@@H]2[C@@H]3[C@@H](CCC34CC4)C3(CC[C@H]21)CC3`
82

Next compound up: `CC1=C2CC[C@@](C)(O)[C@@H]2[C@H]2OC(=O)[C@@H](CN(C)C)[C@@H]2CC1`
91

* * *

test system: cancer cells; assay: Survival rate of cancer cells after test compound is added (flow cytometry, Annexin V-FITC/PI, clinical specimen); assay type: cell-based, patient; settings: Homo sapiens, 18 h, CML; 10.0 μM; read-out: Survival rate (%) All cells (Stem cells and ordinary cells)
// reported viability at 10 µM per item
// units = %; emit number, no label

cancer cells / viability at 10 µM / C=C1CC[C@H]2C(=C)CC[C@H]3C(=C)C(=O)O[C@@H]3[C@@H]12 [Compound 25] : value?
64

Lookup C=C1C(=O)O[C@@H]2[C@@H]3[C@@H](CC[C@@]3(C)O)C(=C)CC[C@@H]12 [Compound 48]
69

Note, next up: [2H][C@@]1(CN(C)C)C(=O)O[C@@H]2[C@@H]3[C@@H](CCC34CC4)C3(CC[C@H]21)CC3 [Compound 46]
93

* * *

Measured viability at 20 µM values are reported for all entries that follow.
test system: cancer cells; assay: Survival rate of cancer cells after test compound is added (flow cytometry, Annexin V-FITC/PI, clinical specimen); assay type: cell-based, patient; conditions: Homo sapiens, 18 h, Retinoblastoma; 20.0 μM; read-out: Survival rate (%) All cells (Stem cells and ordinary cells)
Unit % implied. Number only.

Which viability at 20 µM is reported for this compound? `C=C1CC[C@H]2C(=C)CC[C@H]3C(=C)C(=O)O[C@@H]3[C@@H]12`
54

Entry `[2H][C@@]1(CN(C)C)C(=O)O[C@@H]2[C@@H]3[C@@H](CCC34CC4)C3(CC[C@H]21)CC3` please
87

Also, C=C1C(=O)O[C@H]2[C@H]1CC[C@@](C)(OC)C1CC[C@@](C)(O)[C@@H]12 (stereo partly shown) please.
83

Again, but for `C=C1C(=O)O[C@@H]2[C@@H]3[C@@H](CC[C@@]3(C)O)C(=C)CC[C@@H]12`
69

One more compound: `C=C1C(=O)O[C@@H]2[C@@H]3[C@@H](CCC34CC4)C3(CC[C@@H]12)CC3`
85

Lookup `CCOC(=O)[C@@H]1CCCN1C[C@@H]1C(=O)O[C@H]2[C@H]1CCC1(CC1)[C@@H]1CCC3(CC3)[C@H]21`
89

Can you check `CC1=C2CC[C@@](C)(O)[C@@H]2[C@H]2OC(=O)[C@@H](CN(C)C)[C@@H]2CC1` next?
85
